Test system: HMOX1
Procedure summary: mRNA expression (Quantigene Plex) in NHLF cells: HMOX1; further: test concentration or dose not given here
Assay type: cell-based, human
Measurement conditions: Table 6, 6 h, mRNA normalized to GAPDH, above DMSO treated cells
Measure: HMOX1 (fold induction)

molecule="CC1OCCC1S(=O)(=O)c1c(-c2ccc(C(F)(F)F)cc2)cnc2ccccc12 (stereo not shown) [Compound 3]" endpoint_value="45.17 fold induction"
molecule="COC(=O)[C@]12CCC(C)(C)CC1C1C(=O)C=C3[C@@]4(C)CC(C#N)C(=O)C(C)(C)[C@@H]4CC[C@@]3(C)[C@]1(C)CC2 (stereo partly shown) [Compound 5, reference compound]" endpoint_value="23.97 fold induction"
molecule="C=Cc1c(C)c2cc3[nH]c(cc4nc(cc5nc(cc1[nH]2)C(C)=C5CCC(=O)[O-])C(CCC(=O)[O-])=C4C)c(C)c3C=C.[Co+2] [CoPP, Cobalt protoporphyrin IX, reference compound]" endpoint_value="49.64 fold induction"
molecule="COC(=O)c1ccc2[nH]c(Nc3nc4ccccc4s3)nc2c1 [Compound 4]" endpoint_value="56.15 fold induction"

Every entry's value here was drawn from patent US9707239B2.
